The values you see were collected from a melting point compilation (Tetko et al.; mined from patent text by program, amines drawn as free bases though some values may be those of a salt).

Form field: melting point (one value per entry).

COc1ccc(N2CCOCC2)c2sc(-c3ncc(-c4sc5ccccc5c4C)[nH]3)nc12	213 to 215 °C

IN: Need melting point of COc1ccc(CC2SC(=O)NC2=O)c2c1N(Cc1ccc(N)cc1)C(=O)CC2 (stereo not given) , thanks.
OUT: 174 to 175 °C

IN: Please do the same for Cn1cnc(COc2nc3c(nnn3-c3ccccc3)c3ccccc23)n1 as well.
OUT: 189 to 190 °C

IN: Param item: COc1ccccc1SCC(O)CN(C)Cc1cc2c(=O)c(C(=O)NCc3ccc(Cl)cc3)cn(C)c2o1 (stereo not given)
OUT: 145 to 147 °C

IN: // repeat for CCc1nn2c(-c3ccc(Cl)cc3Cl)cccc2c1[N+](=O)[O-] and report
OUT: 147 to 149 °C

---

Each entry below lists one item and its recorded melting point value.

IN: Please give the measured melting point for this compound: Nc1c2c(nc3ccccc13)CCC2
OUT: 180 to 182 °C

IN: Now consider CCCc1cc(NC(=O)N2CCN(c3cc(OC)cc(OC)c3)CC2)c(OC)nc1C and answer again.
OUT: 82 to 84 °C

IN: Repeat with CCOC(=O)CC(=O)c1cc(F)c(O)nc1Nc1ccc(F)cc1F
OUT: 161 to 162 °C

IN: Lookup O=c1c(Br)cn(-c2cccc(C(F)(F)F)c2)nc1-c1ccnn1-c1ccccc1
OUT: 145 to 146 °C

IN: Likewise for CCn1nc(-c2cccc(Cl)c2)c(C(C)=O)c(Nc2cccc3cccnc23)c1=O ?
OUT: 127 to 128 °C

IN: Same question, CN(C)C(=S)n1c(SC(F)(F)C(F)F)nc(-c2ccccc2)c1-c1ccccc1 this time
OUT: 133 to 134 °C

---

Quick reference: melting point of the listed items.

O=C(Nc1cccc(C(F)(F)F)c1)N1COc2cc(O)ccc21	173 to 174 °C
N#Cc1ccc(Cn2cc(C#N)nn2)cc1	93.5 to 94 °C
CCCCOCCOc1ccc(-c2ccc(N3CCCCC3C)c(C=CC(=O)O)c2)cc1 (configuration not stated)	106 to 108 °C
O=C(O)Cc1cccc(CNC(=O)C2Cc3ccccc3N2S(=O)(=O)c2ccc(-c3cccc(C(F)(F)F)c3)cc2)c1 (configuration not stated)	80 °C
Nc1sc2c(c1C(=O)c1ccc(Cl)cc1)CCSC2	142 to 146 °C

IN: # lookup: melting point of Cc1c(NCC(C)(C)NC(=O)OC(C)(C)C)c([N+](=O)[O-])c2nnnn2c1C
OUT: 153 to 155 °C

---

Reported values of melting point for individual entries

Worked examples, 3 compounds total:
COc1cc(-c2csnc2C)cc2oc(=O)c(C)c(C)c12	163 to 165 °C
CC(=O)C(=Cc1ccc(S(C)(=O)=O)c(F)c1)C(C)=O	140 to 143 °C
Nc1c(Cl)cc(-c2ccccc2)cc1Cl	112 to 113 °C

IN: What does the data say about its melting point? Entry: COC(=O)CCCc1c(-c2ccc(F)cc2)[nH]c2ccc(-c3ccc(O)cc3)cc12
OUT: 141 to 143 °C

IN: Moving on to the next compound: O=C(N[C@H]1CCOC1=O)OCc1ccccc1
OUT: 129 to 130 °C

IN: // next record CC1(C)OC2C(Br)=CC(CC(N)=O)C(Br)C2O1 (stereo unspecified)
OUT: 181 °C
